# target_under_test: T1, Human CD47-C33G (human, UniProt Q08722 19-135)
# T1 construct: also called CD47 mutein with C33G mutation
# assay_details: SPR, IgG captured, CD47 in flow; exp 4;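 further: rates fitted from SPR association and dissociation curves, KD estimated from them, the other target is a CD47 C33G mutein, used to obtain true monovalent affinity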
property_label: kon (M⁻¹ s⁻¹)
Please state the figure in M⁻¹ s⁻¹; there is no need to write the unit.

binder	u	kon
108VH4.M4-VL1.M1 (antibody, V domains shown, also called original humanized 108C10A6 antibody) VH: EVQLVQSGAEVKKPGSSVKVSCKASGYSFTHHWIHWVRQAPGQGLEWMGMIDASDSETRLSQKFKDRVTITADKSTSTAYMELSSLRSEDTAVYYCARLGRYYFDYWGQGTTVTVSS VL: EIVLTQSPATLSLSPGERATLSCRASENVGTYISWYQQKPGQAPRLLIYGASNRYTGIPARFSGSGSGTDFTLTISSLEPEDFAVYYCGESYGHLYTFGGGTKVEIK	M⁻¹ s⁻¹	570000

Sample 108VH10.Mp / 108VL10.Me (antibody, V domains shown, 4D5-framework series; constant regions not restated for this series; also called VH10.Mp VL10.Me) VH: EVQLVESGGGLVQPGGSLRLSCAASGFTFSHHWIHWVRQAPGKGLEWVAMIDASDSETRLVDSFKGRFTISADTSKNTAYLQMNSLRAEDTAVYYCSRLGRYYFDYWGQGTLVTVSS VL: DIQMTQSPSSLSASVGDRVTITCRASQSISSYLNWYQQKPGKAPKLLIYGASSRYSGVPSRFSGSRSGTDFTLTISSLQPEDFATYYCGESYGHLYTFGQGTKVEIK — what was its kon?
72000
